EXPERIMENTAL_TARGET: Tyrosine-protein kinase ABL1 (Homo sapiens, UniProt P00519, D382N)
Sequence (P00519 as listed by the source D382N): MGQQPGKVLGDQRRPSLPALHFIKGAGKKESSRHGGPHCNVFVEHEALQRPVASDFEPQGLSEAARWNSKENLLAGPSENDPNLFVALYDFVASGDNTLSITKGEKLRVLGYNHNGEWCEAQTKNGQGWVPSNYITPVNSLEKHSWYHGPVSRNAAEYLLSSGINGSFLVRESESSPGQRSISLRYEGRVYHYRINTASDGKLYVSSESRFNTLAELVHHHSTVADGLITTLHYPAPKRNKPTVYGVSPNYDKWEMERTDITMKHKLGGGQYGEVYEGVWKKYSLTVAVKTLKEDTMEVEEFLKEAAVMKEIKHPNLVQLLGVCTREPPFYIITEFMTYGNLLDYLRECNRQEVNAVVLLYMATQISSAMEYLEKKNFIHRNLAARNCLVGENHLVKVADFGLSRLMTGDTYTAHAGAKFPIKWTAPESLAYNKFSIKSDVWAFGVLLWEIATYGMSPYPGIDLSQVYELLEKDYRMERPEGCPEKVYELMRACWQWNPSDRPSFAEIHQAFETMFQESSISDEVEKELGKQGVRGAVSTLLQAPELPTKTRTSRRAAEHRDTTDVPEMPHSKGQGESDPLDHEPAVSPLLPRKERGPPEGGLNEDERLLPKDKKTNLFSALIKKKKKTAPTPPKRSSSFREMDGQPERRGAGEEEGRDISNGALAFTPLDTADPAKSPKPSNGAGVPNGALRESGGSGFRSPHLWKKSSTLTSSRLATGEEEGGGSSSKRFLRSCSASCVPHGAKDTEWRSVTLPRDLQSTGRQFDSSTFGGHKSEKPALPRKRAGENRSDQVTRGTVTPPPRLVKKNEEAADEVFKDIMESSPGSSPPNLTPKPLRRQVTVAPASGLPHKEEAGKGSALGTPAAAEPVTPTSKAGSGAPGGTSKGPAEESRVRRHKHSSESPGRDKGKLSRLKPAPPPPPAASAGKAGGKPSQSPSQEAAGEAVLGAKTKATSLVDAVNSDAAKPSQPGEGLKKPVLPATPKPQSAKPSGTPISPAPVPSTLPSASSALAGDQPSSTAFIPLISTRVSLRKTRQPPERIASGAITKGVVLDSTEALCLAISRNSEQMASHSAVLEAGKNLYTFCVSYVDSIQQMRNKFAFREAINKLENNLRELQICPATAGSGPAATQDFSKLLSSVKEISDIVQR
PROCEDURE_SUMMARY: Displacement of Myr-GQQPGKVLGDQRRPSL(K-TAMRA)G-amide from N-terminal-truncated human c-ABL D382N mutant (46 to 534 residues) after 30 mins by fluorescence polarization binding assay
ENDPOINT: pIC50
Recall that pIC50 is obtained by taking minus log10 of the concentration measured in molar.

Worked set:
> print(dat)
                                  structure  endpoint  readout.value
1      N#CCC(=O)NC1=NN(c2ccc(Cl)c(Cl)c2)CC1     pIC50           6.40
2    CC(=O)NC1=NN(c2ccc(Cl)c(Cl)c2)C[C@H]1C     pIC50           5.40
3  C[C@H]1CN(c2ccc(Cl)c(Cl)c2)N=C1NC(=O)c1cncnc1     pIC50           6.50
4  Cn1ncc([N+](=O)[O-])c1C(=O)Nc1nc(-c2ccc(Cl)c(Cl)c2)cs1     pIC50           6.70
5   N#CCC(=O)Nc1nc(-c2ccc(Cl)c(Cl)c2)c[nH]1     pIC50           6.20
6  O=C(NC1=NN(c2ccc(Cl)c(Cl)c2)CC1)c1cncnc1     pIC50           6.30
7   CC(=O)NC1=NN(c2ccc(Cl)c(Cl)c2)C[C@@H]1C     pIC50           6.40

Pending compound:
For reference, reported pIC50 for CC(=O)Nc1nc(-c2ccc(Cl)cc2)cs1 stands at 5.00
